# Target Desc: human progesterone receptor A (Homo sapiens)
# Test Method Notes: Progesterone-receptor-antagonistic action in stably transfected SK-N-MC cells, MTV-LUC reporter (PR-A)
# Measurement Context: antagonistic potency vs 0.1 nmol/l promegestone, 24 hours, luciferase
pIC50: −log10 of the molar value.
Parameter Measured: pIC50

Reference set, count: 2
| Smiles Repr | Obs Value |
| --- | --- |
| C[C@]12C[C@H](c3ccc(C(=O)NCCc4ccncc4)cc3)C3=C4CCC(=O)C=C4CC[C@H]3[C@@H]1CC[C@@]2(O)C(F)(F)C(F)(F)F | 8.96 |
| CC(=O)NCCNC(=O)c1ccc([C@H]2C[C@@]3(C)[C@@H](CC[C@@]3(O)C(F)(F)C(F)(F)F)[C@@H]3CCC4=CC(=O)CCC4=C32)cc1 | 6.41 |

(a) COC(=O)c1cccc(NC(=O)c2ccc([C@H]3C[C@@]4(C)[C@@H](CC[C@@]4(O)C(F)(F)C(F)(F)F)[C@@H]4CCC5=CC(=O)CCC5=C43)cc2)c1
(b) CN(C)C(=O)N1CCN(C(=O)c2ccc([C@H]3C[C@@]4(C)[C@@H](CC[C@@]4(O)C(F)(F)C(F)(F)F)[C@@H]4CCC5=CC(=O)CCC5=C43)cc2)CC1
Task item: Hi, I'm comparing a with b and wondering which one has the bigger number for pIC50. Any idea? Respond using the label that marks the chosen record.
Reply: a
(a: 9.10, b: 7.46)

(a) C[C@]12C[C@H](c3ccc(C(=O)Nc4ccccn4)cc3)C3=C4CCC(=O)C=C4CC[C@H]3[C@@H]1CC[C@@]2(O)C(F)(F)C(F)(F)F
(b) C[C@]12C[C@H](c3ccc(C(=O)Nc4ccccc4C(=O)O)cc3)C3=C4CCC(=O)C=C4CC[C@H]3[C@@H]1CC[C@@]2(O)C(F)(F)C(F)(F)F
(c) C[C@]12C[C@H](c3ccc(C(=O)NCc4ccncc4)cc3)C3=C4CCC(=O)C=C4CC[C@H]3[C@@H]1CC[C@@]2(O)C(F)(F)C(F)(F)F
(d) C[C@]12C[C@H](c3ccc(C(=O)N4CCN(Cc5ccccn5)CC4)cc3)C3=C4CCC(=O)C=C4CC[C@H]3[C@@H]1CC[C@@]2(O)C(F)(F)C(F)(F)F
Task item: Could you please order the items by pIC50, going from the lowest number to the highest? Answer by naming the labels in the order asked.
Reply: c, d, a, b
(c: 7.29, d: 7.80, a: 8.00, b: 9.30)

(P) COC(=O)C1CCN(C(=O)c2ccc([C@H]3C[C@@]4(C)[C@@H](CC[C@@]4(O)C(F)(F)C(F)(F)F)[C@@H]4CCC5=CC(=O)CCC5=C43)cc2)CC1
(Q) C[C@]12C[C@H](c3ccc(C(=O)N4CCNCC4)cc3)C3=C4CCC(=O)C=C4CC[C@H]3[C@@H]1CC[C@@]2(O)C(F)(F)C(F)(F)F
Task item: When P and Q are compared, which has the higher number for pIC50? Label of pick, please.
Reply: P

* * *

# Target Desc: human progesterone receptor A (Homo sapiens, UniProt P06401)
# Sequence (P06401 1-769 isoform P06401-2): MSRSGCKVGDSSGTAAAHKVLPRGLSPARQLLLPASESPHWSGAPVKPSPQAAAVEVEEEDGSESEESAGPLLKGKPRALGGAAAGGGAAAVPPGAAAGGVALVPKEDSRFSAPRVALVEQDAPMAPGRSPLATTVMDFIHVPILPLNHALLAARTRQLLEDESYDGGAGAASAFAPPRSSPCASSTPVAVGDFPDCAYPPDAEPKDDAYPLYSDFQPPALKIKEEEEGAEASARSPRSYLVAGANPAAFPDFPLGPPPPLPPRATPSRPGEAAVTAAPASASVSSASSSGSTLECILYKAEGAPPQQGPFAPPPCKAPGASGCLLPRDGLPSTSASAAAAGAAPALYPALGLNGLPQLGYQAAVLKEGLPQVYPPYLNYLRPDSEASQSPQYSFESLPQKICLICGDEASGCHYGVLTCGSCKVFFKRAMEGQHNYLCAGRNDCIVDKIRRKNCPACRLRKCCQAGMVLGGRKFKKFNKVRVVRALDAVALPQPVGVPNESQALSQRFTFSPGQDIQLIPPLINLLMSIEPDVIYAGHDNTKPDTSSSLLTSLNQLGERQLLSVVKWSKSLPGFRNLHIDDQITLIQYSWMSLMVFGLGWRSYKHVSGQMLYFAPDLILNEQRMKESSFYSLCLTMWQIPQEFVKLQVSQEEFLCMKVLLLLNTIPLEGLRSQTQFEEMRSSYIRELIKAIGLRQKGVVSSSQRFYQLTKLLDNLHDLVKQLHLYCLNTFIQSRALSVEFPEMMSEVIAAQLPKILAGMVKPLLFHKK
# Test Method Notes: Progesterone-receptor-antagonistic action in stably transfected SK-N-MC cells, MTV-LUC reporter (PR-A)
# Measurement Context: antagonistic potency vs 0.1 nmol/l promegestone, 24 hours, luciferase
pIC50: −log10 of the molar value.
Parameter Measured: pIC50

Known results for compounds:
| Compound | pIC50 |
| --- | --- |
| CN(CCc1ccncc1)C(=O)c1ccc([C@H]2C[C@@]3(C)[C@@H](CC[C@@]3(O)C(F)(F)C(F)(F)F)[C@@H]3CCC4=CC(=O)CCC4=C32)cc1 [Example 58] | 8.24 |
| C[C@]12C[C@H](c3ccc(C(=O)NCc4ccc(Cl)cc4)cc3)C3=C4CCC(=O)C=C4CC[C@H]3[C@@H]1CC[C@@]2(O)C(F)(F)C(F)(F)F [Example 36] | 7.70 |
| C[C@]12C[C@H](c3ccc(C(=O)N4CCCC4)cc3)C3=C4CCC(=O)C=C4CC[C@H]3[C@@H]1CC[C@@]2(O)C(F)(F)C(F)(F)F [Example 15] | 7.42 |

(a) C[C@]12C[C@H](c3ccc(C(=O)N4CCN(CCc5ccccc5)CC4)cc3)C3=C4CCC(=O)C=C4CC[C@H]3[C@@H]1CC[C@@]2(O)C(F)(F)C(F)(F)F [Example 44]
(b) C[C@]12C[C@H](c3ccc(C(=O)Nc4ccncc4)cc3)C3=C4CCC(=O)C=C4CC[C@H]3[C@@H]1CC[C@@]2(O)C(F)(F)C(F)(F)F [Example 14]
Task item: Which one would you say has the larger pIC50 value: a , or b ? I would appreciate it if you answered with the label of your choice.
Reply: b
(b: 9.38, a: 7.60)

* * *

# Target Desc: human progesterone receptor B (Homo sapiens, UniProt P06401)
# Test Method Notes: Progesterone-receptor-antagonistic action in stably transfected SK-N-MC cells, MTV-LUC reporter (PR-B)
# Measurement Context: antagonistic potency vs 0.1 nmol/l promegestone, 24 hours, luciferase
Parameter Measured: IC50 (nM)

(a) C[C@]12C[C@H](c3ccc(C(=O)N4CCCCC4)cc3)C3=C4CCC(=O)C=C4CC[C@H]3[C@@H]1CC[C@@]2(O)C(F)(F)C(F)(F)F
(b) C[C@]12C[C@H](c3ccc(-c4ccc(C(N)=O)cc4)cc3)C3=C4CCC(=O)C=C4CC[C@H]3[C@@H]1CC[C@@]2(O)C(F)(F)C(F)(F)F
(c) CC(=O)N1CCN(C(=O)c2ccc([C@H]3C[C@@]4(C)[C@@H](CC[C@@]4(O)C(F)(F)C(F)(F)F)[C@@H]4CCC5=CC(=O)CCC5=C43)cc2)CC1
Task item: Using the recorded IC50, list the entries above from smallest to largest. Provide the ranking by listing each label in its place in the requested order.
Reply: b, a, c
(b: 0.07 nM, a: 5 nM, c: 12 nM)

* * *

# Target Desc: human progesterone receptor A (Homo sapiens, UniProt P06401)
# Test Method Notes: Progesterone-receptor-antagonistic action in stably transfected SK-N-MC cells, MTV-LUC reporter (PR-A)
# Measurement Context: antagonistic potency vs 0.1 nmol/l promegestone, 24 hours, luciferase
Parameter Measured: IC50 (nM)

(I) C[C@]12C[C@H](c3ccc(C(=O)Nc4ccc(C(=O)Nc5ccccc5)cc4)cc3)C3=C4CCC(=O)C=C4CC[C@H]3[C@@H]1CC[C@@]2(O)C(F)(F)C(F)(F)F
(II) C[C@]12C[C@H](c3ccc(C(=O)N4CCN(c5cnccn5)CC4)cc3)C3=C4CCC(=O)C=C4CC[C@H]3[C@@H]1CC[C@@]2(O)C(F)(F)C(F)(F)F
(III) CN(C)C(=O)c1ccc([C@H]2C[C@@]3(C)[C@@H](CC[C@@]3(O)C(F)(F)C(F)(F)F)[C@@H]3CCC4=CC(=O)CCC4=C32)cc1
Task item: Please put the entries in order of rising IC50. List the labels, following the order given in the request.
Reply: I, III, II
(I: 0.39 nM, III: 2.3 nM, II: 4.3 nM)

* * *

# Target Desc: human progesterone receptor A (Homo sapiens)
# Sequence (P06401 1-769 isoform P06401-2): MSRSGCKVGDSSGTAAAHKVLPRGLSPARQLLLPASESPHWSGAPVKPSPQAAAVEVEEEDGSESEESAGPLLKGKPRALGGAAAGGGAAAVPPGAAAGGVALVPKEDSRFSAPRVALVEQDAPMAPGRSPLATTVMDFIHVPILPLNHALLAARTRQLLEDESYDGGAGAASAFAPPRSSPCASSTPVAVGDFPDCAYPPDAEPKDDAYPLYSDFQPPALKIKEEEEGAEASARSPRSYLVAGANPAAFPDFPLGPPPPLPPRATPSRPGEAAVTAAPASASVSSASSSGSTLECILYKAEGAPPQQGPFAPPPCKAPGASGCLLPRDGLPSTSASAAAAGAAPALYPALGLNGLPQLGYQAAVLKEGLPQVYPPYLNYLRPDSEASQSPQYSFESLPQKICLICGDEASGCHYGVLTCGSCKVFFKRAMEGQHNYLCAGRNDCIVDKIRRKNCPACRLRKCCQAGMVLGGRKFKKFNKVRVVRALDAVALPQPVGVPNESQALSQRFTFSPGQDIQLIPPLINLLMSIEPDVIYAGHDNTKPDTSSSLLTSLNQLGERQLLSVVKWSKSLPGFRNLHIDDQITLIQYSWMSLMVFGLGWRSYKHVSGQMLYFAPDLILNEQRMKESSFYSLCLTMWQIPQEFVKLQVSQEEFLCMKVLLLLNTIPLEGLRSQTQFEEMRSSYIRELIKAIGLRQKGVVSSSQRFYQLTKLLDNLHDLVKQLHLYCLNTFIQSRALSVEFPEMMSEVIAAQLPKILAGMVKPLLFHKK
# Test Method Notes: Progesterone-receptor-antagonistic action in stably transfected SK-N-MC cells, MTV-LUC reporter (PR-A)
# Measurement Context: antagonistic potency vs 0.1 nmol/l promegestone, 24 hours, luciferase
Parameter Measured: IC50 (nM)

| Smiles Repr | IC50 / nM |
| --- | --- |
| C[C@]12C[C@H](c3ccc(C(=O)N4CCN(Cc5ccccc5)CC4)cc3)C3=C4CCC(=O)C=C4CC[C@H]3[C@@H]1CC[C@@]2(O)C(F)(F)C(F)(F)F | 117 |

(P) CN1CCN(CCNC(=O)c2ccc([C@H]3C[C@@]4(C)[C@@H](CC[C@@]4(O)C(F)(F)C(F)(F)F)[C@@H]4CCC5=CC(=O)CCC5=C43)cc2)CC1
(Q) C[C@]12C[C@H](c3ccc(C(=O)Nc4ccc(C(=O)O)cc4)cc3)C3=C4CCC(=O)C=C4CC[C@H]3[C@@H]1CC[C@@]2(O)C(F)(F)C(F)(F)F
Task item: Record comparison, field IC50: mark the lower of P and Q . Respond using the label that marks the chosen record.
Reply: Q
